# ASSAYED_TARGET: T1, human TROP2-his protein (human, UniProt P09758 27-274)
# T1 construct: Biotin-labelled in the ELISAs, unlabelled analyte in Biacore; also called biotin-labeled human TROP2-his protein; biotin human Trop2-his
# T1 sequence: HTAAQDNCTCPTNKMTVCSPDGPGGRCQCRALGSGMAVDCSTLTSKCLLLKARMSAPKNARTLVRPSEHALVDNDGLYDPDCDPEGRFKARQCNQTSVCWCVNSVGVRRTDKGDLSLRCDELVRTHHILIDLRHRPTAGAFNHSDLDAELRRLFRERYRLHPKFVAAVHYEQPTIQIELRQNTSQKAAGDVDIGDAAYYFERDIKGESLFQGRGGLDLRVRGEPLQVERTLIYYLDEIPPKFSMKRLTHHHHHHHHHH
# ASSAY_NOTES: SPR Biacore T200, supernatant antibody captured on anti-human IgG CM5 chip, 40 nM human TROP2-his
The entries below come with measured koff values attached.
Kindly report the value followed by its unit.

BINDER	koff
huA1E4F7D4-V5 (antibody, human IgG1, kappa, V domains shown, Positions of the X residues are given in the claims; Tested as cell supernatant) VH: QVQLVQSGAEVKKPGASVKVSCKASGYSFTTHWIHWVRQAPGQGLEWIGTIFPSNAYAVYNQKFRDRATMTRDRSISTAYIELSRLRSDDTAVYYCARASYFDYWGQGTTVTVSS VL: EIVLTQSPATLSLSPGERATLSCRASQNIGTSIHWFQQKPGGSPRLLIKYASESISGIPSRFSGSGSGTDFTLTISSLEPEDFAVYYCQHSHSWPFTFGQGTKLEIKR	0.000204 s⁻¹
huA1E4F7D4-V15 (antibody, human IgG1, kappa, V domains shown, Positions of the X residues are given in the claims; Tested as cell supernatant) VH: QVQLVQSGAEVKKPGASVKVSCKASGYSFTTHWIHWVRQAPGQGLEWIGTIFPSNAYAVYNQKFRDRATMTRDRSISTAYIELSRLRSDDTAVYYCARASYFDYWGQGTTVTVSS VL: EIVLTQSPATLSLSPGERATLSCRASQNIGTSIHWFQQKPGGAPRLLIKYASESISGIPSRFSGSGSGTDFTLTISSLEPEDFAVYYCQHSHSWPFTFGQGTKLEIKR	0.000205 s⁻¹
huA1E4F7D4-V6 (antibody, human IgG1, kappa, V domains shown, Positions of the X residues are given in the claims; Tested as cell supernatant) VH: QVQLVQSGAEVKKPGASVKVSCKASGYSFTTHWIHWVRQAPGQGLEWIGTIFPSNAYAVYNQKFRDRATMTADTSISTAYIELSRLRSDDTAVYYCARASYFDYWGQGTTVTVSS VL: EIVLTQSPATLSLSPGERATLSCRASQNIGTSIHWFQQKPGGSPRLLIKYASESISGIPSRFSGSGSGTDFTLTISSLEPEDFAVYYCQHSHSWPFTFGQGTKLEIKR	0.000179 s⁻¹
huA1E4F7D4-V7 (antibody, human IgG1, kappa, V domains shown, Positions of the X residues are given in the claims; Tested as cell supernatant) VH: QVQLVQSGAEVKKPGASVKVSCKASGYSFTTHWIHWVRQAPGQGLEWIGTIFPSNAYAVYNQKFRDRATMTADRSISTAYIELSRLRSDDTAVYYCARASYFDYWGQGTTVTVSS VL: EIVLTQSPATLSLSPGERATLSCRASQNIGTSIHWFQQKPGQSPRLLIKYASESISGIPSRFSGSGSGTDFTLTISSLEPEDFAVYYCQHSHSWPFTFGQGTKLEIKR	0.000192 s⁻¹

In the following, a different binder is considered.
Fill blank: measured koff of the binder huA1E4F7D4-V21 (antibody, human IgG1, kappa, V domains shown, Positions of the X residues are given in the claims; Tested as cell supernatant) VH: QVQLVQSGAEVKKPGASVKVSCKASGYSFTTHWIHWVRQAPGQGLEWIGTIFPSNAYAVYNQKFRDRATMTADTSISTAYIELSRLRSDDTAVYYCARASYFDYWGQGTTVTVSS VL: EIVLTQSPATLSLSPGERATLSCRASQNIGTSIHWFQQKPGGSPRLLIYYASESISGIPSRFSGSGSGTDFTLTISSLEPEDFAVYYCQHSHSWPFTFGQGTKLEIKR is ____.
0.000271 s⁻¹

// provenance: patent US20240207432A1
